Experiment: S16 Schwann cell viability assay (CellTiter-Glo assay) (AID 624031); also: nearly all actives have a fitted effect of over 70% in size
Details: S16 rat Schwann cells viability, 24 h; series mostly up to 57.5 µM
Records with an inconclusive call do not appear. Calls of active or inactive are those of the source. Calls follow the shape of the dose curve; as a rule, active = well fitted cell-killing curve with a large enough effect; inconclusive = small, poorly fitted or top-dose-only effect, or effect the other way; inactive = flat fitted curve, though single readings scatter.
Possible outcomes: active, inactive

molecule=CC(C)(C)c1ccc(CN2CCN([C@H](c3ccccc3)c3ccc(Cl)cc3)CC2)cc1 class=inactive
molecule="C[N+]1(C)[C@@H]2CC(OC(=O)[C@@H](CO)c3ccccc3)C[C@@H]1[C@H]1O[C@H]12 (stereo not given in full)" class=inactive
molecule=O=C(O)[C@@H](O)[C@@H](O)[C@H](O)[C@H](O)CO class=inactive
molecule="CN1[C@@H]2CC(OC(=O)[C@@H](CO)c3ccccc3)C[C@@H]1[C@H]1O[C@H]12 (stereo not given in full)" class=inactive
molecule=O=C(O)[C@@H](O)[C@@H](O)[C@H](O)C(=O)CO class=inactive
molecule=CC(=O)N1CCN(c2ccc(OC[C@@H]3CO[C@@](Cn4ccnc4)(c4ccc(Cl)cc4Cl)O3)cc2)CC1 class=inactive
molecule=N[C@H](COP(=O)(O)O)C(=O)O class=inactive
molecule=OC[C@H](S)CS class=active
molecule=C[C@]12CC[C@H]3c4ccc(O)cc4CC[C@@H]3[C@H]1CC[C@@H]2OP(=O)(O)O class=inactive
molecule=CN(C)[C@H]1C(=O)C(C(=O)NCN2CCCC2)=C(O)[C@]2(O)C(=O)C3=C(O)c4c(O)cccc4[C@](C)(O)[C@H]3C[C@H]12 class=inactive

###

Molecular target: 3',5'-cyclic-AMP phosphodiesterase 4B (Homo sapiens) (UniProt Q07343)
Sequence (Q07343 whole entry, looked up): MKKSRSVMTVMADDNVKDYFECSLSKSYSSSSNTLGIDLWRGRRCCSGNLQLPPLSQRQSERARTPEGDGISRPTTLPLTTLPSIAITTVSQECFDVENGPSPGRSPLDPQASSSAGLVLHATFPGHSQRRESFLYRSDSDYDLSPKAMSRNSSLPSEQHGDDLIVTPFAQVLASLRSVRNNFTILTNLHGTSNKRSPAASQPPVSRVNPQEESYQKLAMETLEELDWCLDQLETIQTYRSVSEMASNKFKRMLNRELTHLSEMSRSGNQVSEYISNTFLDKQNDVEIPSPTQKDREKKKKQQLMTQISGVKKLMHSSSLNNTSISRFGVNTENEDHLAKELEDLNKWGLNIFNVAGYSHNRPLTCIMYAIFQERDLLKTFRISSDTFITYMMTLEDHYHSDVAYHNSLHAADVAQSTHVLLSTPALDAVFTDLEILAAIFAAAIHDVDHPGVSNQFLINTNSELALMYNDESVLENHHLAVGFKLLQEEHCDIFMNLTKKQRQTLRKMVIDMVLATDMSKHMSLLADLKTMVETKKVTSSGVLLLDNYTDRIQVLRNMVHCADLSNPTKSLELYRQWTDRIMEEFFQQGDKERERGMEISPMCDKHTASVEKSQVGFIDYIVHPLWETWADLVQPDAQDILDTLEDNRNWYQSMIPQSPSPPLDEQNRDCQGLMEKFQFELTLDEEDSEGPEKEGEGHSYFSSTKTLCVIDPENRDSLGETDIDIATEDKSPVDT
Assay: qHTS Assay for Inhibitors of PDE-IV (AID 607); also: % of control where 0% means no effect
Conditions: HEK293 ACTOne CNG channel cells, membrane potential fluorescence; series mostly up to 22.9 µM
Results filed as inconclusive are left out. Calls of active or inactive are those of the source. Calls come from the whole dose curve; as a rule, active = well fitted activation curve with a large enough effect in the main read-out, with a control signal flat (not every such curve was filed as active); inconclusive = small, poorly fitted or top-dose-only effect, or effect the other way, or a change in a side signal; inactive = flat fitted curve, though single readings scatter.
READOUT LABEL: outcome

molecule_smiles=Fc1cccc(Cl)c1/C=N\N=C1c2ccccc2-c2ccccc21 readout_label=outcome measured_result=inactive
molecule_smiles=CC(=O)NC1=C(OS(=O)(=O)c2ccc(C)cc2)CN(C)C1=O readout_label=outcome measured_result=inactive
molecule_smiles=c1ccc(-c2ccc(-c3ccc(C4=NCCN4)cc3)o2)cc1 readout_label=outcome measured_result=inactive
molecule_smiles=Cc1ccc(C(N)=Nc2ccccc2)cc1 readout_label=outcome measured_result=inactive
molecule_smiles=Cc1nc([N+](=O)[O-])cn1-c1nc2ccccn2c1[N+](=O)[O-] readout_label=outcome measured_result=inactive
molecule_smiles=COc1cc2c3cc1Oc1cc(ccc1O)C[C@@H]1c4c(cc(OC)c(O)c4Oc4ccc(cc4)C[C@H]3[N+](C)(C)CC2)CC[N+]1(C)C readout_label=outcome measured_result=inactive
molecule_smiles=C[C@@H]1C[C@H]2[C@H]3C[C@@H](F)C4=CC(=O)C=C[C@]4(C)[C@@]3(Cl)[C@@H](O)C[C@@]2(C)[C@@H]1C(=O)COC(=O)C(C)(C)C readout_label=outcome measured_result=inactive
molecule_smiles=S=c1[nH]nc(SCc2ccccc2Cl)c2[nH]cnc12 readout_label=outcome measured_result=inactive
molecule_smiles=COc1cccc(Nc2ncc3nc(-c4ccccc4)c(=O)n(C4CC4)c3n2)c1 readout_label=outcome measured_result=inactive

###

Experiment: qHTS assay for small molecule activators of the p53 signaling pathway (AID 651743); also: % of control where 0% means no effect
Settings: HCT-116 p53RE-bla, beta-lactamase FRET ratio, 16 h; stronger effect = higher value
Records with an inconclusive call do not appear.
READOUT LABEL: activation (%)

molecule=C=CC(=O)CC readout_label=activation measured_result=-1.3
molecule=Cc1c(C(=O)O)c(O)cc2c1C(=O)c1c(O)c([C@H]3O[C@H](CO)[C@@H](O)[C@H](O)[C@H]3O)c(O)c(O)c1C2=O readout_label=activation measured_result=0.0222
molecule=C=C(C#N)C(=O)OCC readout_label=activation measured_result=2.02
molecule="Cc1ccccc1OCC1CO1 (stereo unspecified)" readout_label=activation measured_result=-0.32
molecule=CC(C)(C)C(=O)C1C(=O)c2ccccc2C1=O readout_label=activation measured_result=12
molecule=CC(/C=C/C=C(C)/C=C/C(=O)O)=C\C=C\C=C(C)\C=C\C=C(C)\C=C\C(=O)O readout_label=activation measured_result=-5.5
